Target: T1, Human CD3 on CD3+ Jurkat cells (human, UniProt P07766 23-207)
T1 construct: whole, on cells; Target is the endogenous CD3 complex on cells; also called Human CD3+ Jurkat cells
T1 sequence (P07766 23-207): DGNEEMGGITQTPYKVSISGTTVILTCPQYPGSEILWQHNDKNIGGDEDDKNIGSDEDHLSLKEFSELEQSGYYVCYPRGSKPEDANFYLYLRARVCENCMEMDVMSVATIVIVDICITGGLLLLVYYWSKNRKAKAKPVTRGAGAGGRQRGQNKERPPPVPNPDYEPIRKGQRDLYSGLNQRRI
Assay: flow cytometry, 100 nM IgG1, pH 7.4
measured property: NCB (Normalized Cell Binding)
Numbers only.

Consider the following illustrative entries.
Entry Antibody No. A002 (ADI-50024) IgG1 (antibody, V domains shown, IgG1, CHO-produced) VH: QVQLVQSGAEVKKPGASVKVSCKASGFNIKDYYMHWVRQAPGQRLEWIGWIDLENANTVYDAKFQGRVTITRDTSASTAYMELSSLRSEDTAVYYCARDAYGRYFYDVWGQGTLVTVSS VL: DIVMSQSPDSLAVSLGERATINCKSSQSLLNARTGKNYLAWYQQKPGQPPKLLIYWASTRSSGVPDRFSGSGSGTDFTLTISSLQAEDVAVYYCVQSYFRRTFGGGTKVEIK — recorded NCB (Normalized Cell Binding) = 366

Entry Antibody No. V007 (ADI-67450) IgG1 (antibody, V domains shown, IgG1, CHO-produced) VH: QVQLVQSGAEVKKPGASVKVSCKASGFNIDDYYMHWVRQAPGQRLEWMGWIDLENANTIDDAKFQGRVTITRDTSASTAYMELSSLRSEDTAVYYCARDAYGRYFYDVWGQGTLVTVSS VL: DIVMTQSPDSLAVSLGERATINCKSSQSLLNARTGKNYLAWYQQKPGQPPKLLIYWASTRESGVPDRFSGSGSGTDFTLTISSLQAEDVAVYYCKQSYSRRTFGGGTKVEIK — recorded NCB (Normalized Cell Binding) = 287

// next item, NCB (Normalized Cell Binding) requested
Entry Antibody No. V017 (ADI-76360) IgG1 (antibody, V domains shown, IgG1, CHO-produced) VH: QVQLVQSGAEVKKPGASVKVSCKASGFNIKDYYMHWVRQAPGQRLEWMGWIDLENADTIYDAKFQGRVTITRDTSASTAYMELSSLRSEDTAVYYCGRDAYGRYFYDVWGQGTLVTVSS VL: DIVMTQSPDSLAVSLGERATINCKSSQSLLNARTGKNYLAWYQQKPGQPPKLLIYWASTRESGVPDRFSGSGSGTDFTLTISSLQAEDVAVYYCKQSYSLRTFGGGTKVEIK — recorded NCB (Normalized Cell Binding) = 325
